- METHOD DESCRIPTION: Metabolic stability in Beagle dog liver microsome assessed as intrinsic clearance measured upto 60 min by UPLC-MS/MS analysis
- Assay type: ADME, Canis lupus familiaris
- CONDITION LABEL: microsomes, 1 h
READOUT: CLint (µL/min/mg)
Report as a plain number; the unit µL/min/mg is understood.

Prompt: GET /values?readout=CLint&item= `CN(C)CCOc1ccc2ncnc(NC3CCN(CC4CN(c5ccc(S(=O)(=O)C6CC6)cc5)C4)CC3)c2n1`
Completion: 13.9

* * *

- METHOD DESCRIPTION: Metabolic stability in Crab eating monkey liver microsome assessed as intrinsic clearance measured upto 60 min by UPLC-MS/MS analysis
- Assay type: ADME, Macaca fascicularis
- CONDITION LABEL: cynomolgus monkey, microsomes, 1 h
READOUT: CLint
Param answer (str): number followed by unit.

Prompt: // lookup CLint for `CN(C)CCOc1ccc2ncnc(NC3CCN(CC4CN(c5ccc(S(=O)(=O)C6CC6)cc5)C4)CC3)c2n1`
Completion: 22 µL/min/mg

* * *

- METHOD DESCRIPTION: Metabolic stability in human liver microsome assessed as compound remaining measured after 60 min by UPLC-MS/MS analysis
- Format: ADME
- CONDITION LABEL: liver microsomes, read-out: Stability
READOUT: remaining at 1 h (%)
The response must be a number in % with no trailing unit.

Prompt: # input compound: `CN(C)CCOc1ccc2ncnc(NC3CCN(CC4CN(c5ccc(S(=O)(=O)C6CC6)cc5)C4)CC3)c2n1` ; wanted: its remaining at 1 h
Completion: 79
